Documented main root length across a set of compounds
# System: Arabidopsis thaliana Col-0
# assayComment: Germination rate and phytotoxicity
# Assay type: in vivo
# conditionInfo: 5 µM; 10 DPS

Past entries and their recorded results:
compound: CCOc1cccc(-c2ccc3[nH]ccc3c2)c1 [i-9]
assaySystem: Arabidopsis thaliana Col-0
endpointLabel: main root length
endpointResult: 40.21 mm

compound: FC(F)(F)Oc1ccc(-c2ccc3[nH]ccc3c2)cc1 [i-21]
assaySystem: Arabidopsis thaliana Col-0
endpointLabel: main root length
endpointResult: 41.56 mm

**Query** Query (compound): CCCOc1ccc(-c2ccc3[nH]ccc3c2)cc1 [i-13] ; field requested: main root length
**Result** 40.24 mm

**Query** Then what about the compound Clc1ccc(-c2ccc3[nH]ccc3c2)cc1 [i-19] ?
**Result** 38.83 mm
